molecular target: Cdc14A (Homo sapiens)
Sequence (Q9UNH5 whole entry, species assumed): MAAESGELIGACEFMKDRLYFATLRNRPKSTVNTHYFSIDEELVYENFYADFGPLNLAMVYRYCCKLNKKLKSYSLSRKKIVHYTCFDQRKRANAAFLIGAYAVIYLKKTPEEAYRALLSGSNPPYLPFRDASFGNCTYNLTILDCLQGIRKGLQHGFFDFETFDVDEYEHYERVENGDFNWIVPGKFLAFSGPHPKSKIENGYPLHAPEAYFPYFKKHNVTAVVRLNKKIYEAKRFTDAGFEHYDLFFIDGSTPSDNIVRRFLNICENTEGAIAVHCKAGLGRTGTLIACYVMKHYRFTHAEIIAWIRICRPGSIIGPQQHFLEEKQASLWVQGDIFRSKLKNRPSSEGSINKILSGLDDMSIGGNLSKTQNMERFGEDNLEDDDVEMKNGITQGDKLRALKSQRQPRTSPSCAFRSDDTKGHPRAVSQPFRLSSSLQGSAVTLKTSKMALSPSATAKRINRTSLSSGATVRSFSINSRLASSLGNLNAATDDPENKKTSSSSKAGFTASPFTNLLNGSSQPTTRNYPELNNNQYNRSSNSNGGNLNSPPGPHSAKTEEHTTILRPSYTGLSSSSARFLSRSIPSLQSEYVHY

- Compound: "CCc1ccc(C(=O)NCCCC[C@H](NC(=O)[C@H](Cc2ccc(C(F)(F)P(=O)(O)O)cc2)NC(=O)[C@H](Cc2ccccc2)NC(=O)CO[C@H]2C[C@@H](C)CC[C@@H]2C(C)C)C(N)=O)cc1 [Compound 8]"
  Ki: "> 1000 nM"
